Target: pooled human IgG (human IgG1,2,3 and 4)
Catalogue of Enzyme Activity Endpoint Assay: scIgG readings, one per entry.
Field note: include the unit after the figure.

# count of solved cases: 3
protein | reported.property | experimental.value
PRT-268 (protein) MVTSVWTKGVTPPTDFIYGEDVLHAPYKAGQGWYDITKLFNGKDDLLCGAATAGNMLHWWFDQNKEQIENYLKKHPEKQKINFNGEQMFDVKEAIDTKDSQLDSKLFDYFKEKAFPNLSTKHLGVFPDHVIDMFINGYRLSLLNHGPTPVKRGSKDPRGGIFDAVFTRGDQSKLLTNRHDLKNKTLKEISDLIKQELTEGKALGISHTYANGRINHVINLWGADFDAEGNLEAIYVTDSDSNPSIGMKKYFVGVNSSGKVAISAKEIEEDNIGAQVLGLFTLSTGQDIWNQTN | Enzyme Activity Endpoint Assay: scIgG | 282 ng/µL
PRT-191 (protein) MANQEIRYSEVTPYHVTSVWTKGVTPPANFTQGEDVFHAPYVANQGWYDITKTFNGKDDLLCGAATAGNMLHWWFDQNKDQIKRYLEEHPEKQKINFNGEQMFDVKEAIDTKNHQLDSKLFEYFKEKAFPYLSTKHLGVFPDHVIDMFINGYRLSLTNHGPTPVKEGSKDPRGGIFDAVFTRGDQSKLLTSRHDFKEKNLKEISDLIKKELTEGKALGLSHTYANVRHSINHVINLWGADFDSNGNLKAIYVTDSDSNASIGMKKYFVGVNSAGKVAISAKEIKEDNIGAQVLGLFTLSTGQDSWNQTN | Enzyme Activity Endpoint Assay: scIgG | 358 ng/µL
PRT-260 (protein) MVTSVWTKGVTPPTNFTYGEDVLHAPYVANQGWYDITKTFNGKDNLLCGAATAGNMLHWWFDQNKEQIENYLKKHPEKQKINFNGEQLFDVKEAIDTKDSQLDSKLFDYFKEKAFPNLSTKHLGVFPDHVIDMFINGYRLSLLNHGPTPVKRGSKDKRGGIFDAVFTRGVQSKLLTNRHDFKEKTLKEISDLIKQELTEGKALGISHTYANVRINHVINLWGADFDAEGNLEAIYVTDSDTNPSIGMKKYFVGVNSSGKVAISAKEIEEDNIGAQVLGLFTLSTGQDIWNQTN | Enzyme Activity Endpoint Assay: scIgG | 0 ng/µL

# evaluate next
Query: So what does the record say about Enzyme Activity Endpoint Assay: scIgG for PRT-99 (protein) MANQEIRYSEVTPYHVTSVWTKGVTPPAKFTQGEDVFHAPYVANQGWYDITKTFNGKDDLLCGAATAGNMLHWWFDQNKEKIEAYLKKHPDKQKIMFGDQELLDVRKVINTKGDQTNSELFNYFRDKAFPGLSARRIGVMPDLVLDMFINGYYLNVYKTQTTDVNRTYQEKDRRGGIFDAVFTRGDQSKLLTSRHDFKEKNLKEISDLIKKELTEGKALGLSHTYANVRINHVINLWGADFDSNGNLKAIYVTDSDSNASIGMKKYFVGVNSAGKVAISAKEIKEDNIGAQVLGLFTLSTGQDIWNQTN ?
Response: 0 ng/µL
